// data source = ChEMBL document CHEMBL3407381

System: L929
Experiment: Cytotoxicity against mouse L929 cells assessed as reduction cell viability after 5 days by MTT assay
Type: cell-based
Conditions: l929, 120 h
# Activity annotations

Request: Quick check: Activity on L929, item CC1CCCCC1c1cc(C(=O)NN)nc2ccccc12 (stereo unspecified) ?
Result: > 200 µg/mL

Request: Quick check: Activity on L929, item OC(c1ccc(F)cc1)c1cc(C23CC4CC(CC(C4)C2)C3)c2ccccc2n1 (stereo unspecified) ?
Result: > 200 µg/mL

Request: Quick check: Activity on L929, item O=C(c1cc(C23CC4CC(CC(C4)C2)C3)c2ccccc2c1)N1CCCCC1 ?
Result: > 200 µg/mL

Request: Quick check: Activity on L929, item CN1CCN(C(=O)c2cc(C34CC5CC(CC(C5)C3)C4)c3ccccc3c2)CC1 ?
Result: > 200 µg/mL

Request: Quick check: Activity on L929, item COc1ccc(C(O)c2cc(C34CC5CC(CC(C5)C3)C4)c3ccccc3n2)cc1 (stereo unspecified) ?
Result: > 200 µg/mL

Request: Quick check: Activity on L929, item CCCC(O)c1cc(C23CC4CC(CC(C4)C2)C3)c2ccccc2n1 (stereo unspecified) ?
Result: > 200 µg/mL

Request: Quick check: Activity on L929, item O=C(NC1CCN(Cc2ccccc2)CC1)c1cc(C23CC4CC(CC(C4)C2)C3)c2ccccc2c1 ?
Result: > 200 µg/mL

Request: Quick check: Activity on L929, item O=C(c1cc(C23CC4CC(CC(C4)C2)C3)c2ccccc2c1)N1CCN(c2ccccc2)CC1 ?
Result: > 200 µg/mL

Request: Quick check: Activity on L929, item O=C(c1cc(C23CC4CC(CC(C4)C2)C3)c2ccccc2c1)N1CCNCC1 ?
Result: > 200 µg/mL

Request: Quick check: Activity on L929, item CC1CCC(c2cc(C(=O)NN)nc3ccccc23)CC1 (stereo unspecified) ?
Result: > 200 µg/mL

###

Test system: Mycobacterium tuberculosis
Test: Anti-tuberculosis activity against Mycobacterium tuberculosis H37Rv assessed as inhibition of microbial growth at 6.25 ug/ml by MABA method
Assay type: functional
property-measured: inhibition at 6.25 µg/mL (%)
The response must be a number in % with no trailing unit.

# annotated cases, reported inhibition at 6.25 µg/mL shown
Request: Request the reported inhibition at 6.25 µg/mL associated with OC(c1ccccc1)c1cc(C23CC4CC(CC(C4)C2)C3)c2ccccc2n1 (centres undefined)
Result: 86

Request: Request the reported inhibition at 6.25 µg/mL associated with CCC(O)c1cc(C23CC4CC(CC(C4)C2)C3)c2ccccc2n1 (centres undefined)
Result: 73

Request: Request the reported inhibition at 6.25 µg/mL associated with O=C(c1cc(C23CC4CC(CC(C4)C2)C3)c2ccccc2c1)N1CCCC1
Result: 53

Request: Request the reported inhibition at 6.25 µg/mL associated with O=C(c1cc(C23CC4CC(CC(C4)C2)C3)c2ccccc2c1)N1CCN(c2ccccn2)CC1
Result: 8

Request: Request the reported inhibition at 6.25 µg/mL associated with CC(C)(C)C1CCC(c2cc(C(=O)NN)nc3ccccc23)CC1 (centres undefined)
Result: 99

Request: Request the reported inhibition at 6.25 µg/mL associated with NNC(=O)c1cc(CC2CC3CCC2C3)c2ccccc2n1 (centres undefined)
Result: 92

Next:
Request: Request the reported inhibition at 6.25 µg/mL associated with O=C(c1cc(C23CC4CC(CC(C4)C2)C3)c2ccccc2c1)N1CCOCC1
Result: 14

Request: Request the reported inhibition at 6.25 µg/mL associated with CCCCC(O)c1cc(C23CC4CC(CC(C4)C2)C3)c2ccccc2n1 (centres undefined)
Result: 91

###

# inhibition at 6.25 µg/mL annotations
Test system: Mycobacterium tuberculosis
Test: Anti-tuberculosis activity against Mycobacterium tuberculosis H37Rv assessed as inhibition of microbial growth at 6.25 ug/ml by MABA method
Format: functional
Please make sure the unit comes right after the number.

Request: Request the reported inhibition at 6.25 µg/mL associated with CO[C@H]1CC[C@H](c2cc(C(=O)NN)nc3ccccc32)CC1
Result: 32%

Next:
Request: Request the reported inhibition at 6.25 µg/mL associated with C=CCC(O)c1cc(C23CC4CC(CC(C4)C2)C3)c2ccccc2n1 (stereo unspecified)
Result: 44%

Request: Request the reported inhibition at 6.25 µg/mL associated with O=C(NO)c1cc(C23CC4CC(CC(C4)C2)C3)c2ccccc2c1
Result: 91%

Request: Request the reported inhibition at 6.25 µg/mL associated with NNC(=O)c1cc(C2CCC(C(F)(F)F)CC2)c2ccccc2n1 (stereo unspecified)
Result: 89%

Request: Request the reported inhibition at 6.25 µg/mL associated with OC(c1ccc(F)cc1)c1cc(C23CC4CC(CC(C4)C2)C3)c2ccccc2n1 (stereo unspecified)
Result: 99%

Request: Request the reported inhibition at 6.25 µg/mL associated with CCCC(O)c1cc(C23CC4CC(CC(C4)C2)C3)c2ccccc2n1 (stereo unspecified)
Result: 86%

Request: Request the reported inhibition at 6.25 µg/mL associated with CO[C@H]1CC[C@@H](c2cc(C(=O)NN)nc3ccccc32)CC1
Result: 90%

Request: Request the reported inhibition at 6.25 µg/mL associated with CN1CCN(C(=O)c2cc(C34CC5CC(CC(C5)C3)C4)c3ccccc3c2)CC1
Result: 87%

Request: Request the reported inhibition at 6.25 µg/mL associated with Cc1ccc(C(O)c2cc(C34CC5CC(CC(C5)C3)C4)c3ccccc3n2)cc1 (stereo unspecified)
Result: 76%

Request: Request the reported inhibition at 6.25 µg/mL associated with COC1CCCC(c2cc(C(=O)NN)nc3ccccc23)C1 (stereo unspecified)
Result: 90%

Request: Request the reported inhibition at 6.25 µg/mL associated with OC(c1cc(C23CC4CC(CC(C4)C2)C3)c2ccccc2n1)c1cccc2ccccc12 (stereo unspecified)
Result: 9%

###

Tested on: Mycobacterium tuberculosis
Assay: Anti-tuberculosis activity against Mycobacterium tuberculosis H37Rv assessed as inhibition of microbial growth at 6.25 ug/ml by MABA method
Assay type: functional
property-measured: inhibition at 6.25 µg/mL (%)
The response must be a number in % with no trailing unit.

Request: Request the reported inhibition at 6.25 µg/mL associated with O=C(c1cc(C23CC4CC(CC(C4)C2)C3)c2ccccc2c1)N1CCCCC1
Result: 9

Request: Request the reported inhibition at 6.25 µg/mL associated with O=C(c1cc(C23CC4CC(CC(C4)C2)C3)c2ccccc2c1)N1CCN(c2ccccc2)CC1
Result: 90

Request: Request the reported inhibition at 6.25 µg/mL associated with NNC(=O)c1cc(C23CC4CC(CC(C4)C2)C3)c2ccccc2n1
Result: 99

Request: Request the reported inhibition at 6.25 µg/mL associated with CN(C)c1ccc(C(O)c2cc(C34CC5CC(CC(C5)C3)C4)c3ccccc3n2)cc1 (stereo not given)
Result: 4

Request: Request the reported inhibition at 6.25 µg/mL associated with CC1CCC(c2cc(C(=O)NN)nc3ccccc23)CC1 (stereo not given)
Result: 84

Request: Request the reported inhibition at 6.25 µg/mL associated with COc1ccc(C(O)c2cc(C34CC5CC(CC(C5)C3)C4)c3ccccc3n2)cc1 (stereo not given)
Result: 47

Request: Request the reported inhibition at 6.25 µg/mL associated with CC1CCCCC1c1cc(C(=O)NN)nc2ccccc12 (stereo not given)
Result: 99

Request: Request the reported inhibition at 6.25 µg/mL associated with O=C(c1cc(C23CC4CC(CC(C4)C2)C3)c2ccccc2c1)N1CCNCC1
Result: 82

Request: Request the reported inhibition at 6.25 µg/mL associated with O=C(NC1CCN(Cc2ccccc2)CC1)c1cc(C23CC4CC(CC(C4)C2)C3)c2ccccc2c1
Result: 90

###

Test system: Mycobacterium tuberculosis
Test: Anti-tuberculosis activity against Mycobacterium tuberculosis H37Rv assessed as inhibition of microbial growth at 1.56 ug/ml by MABA method
Assay type: functional
property-measured: inhibition at 1.56 µg/mL (%)
The response must be a number in % with no trailing unit.

# annotated cases, reported inhibition at 1.56 µg/mL shown
Request: Request the reported inhibition at 1.56 µg/mL associated with NNC(=O)c1cc(C23CC4CC(CC(C4)C2)C3)c2ccccc2n1
Result: 80

Request: Request the reported inhibition at 1.56 µg/mL associated with OC(c1ccc(F)cc1)c1cc(C23CC4CC(CC(C4)C2)C3)c2ccccc2n1 (centres undefined)
Result: 69

Request: Request the reported inhibition at 1.56 µg/mL associated with CC1CCCCC1c1cc(C(=O)NN)nc2ccccc12 (centres undefined)
Result: 77

Next:
Request: Request the reported inhibition at 1.56 µg/mL associated with CC(C)(C)C1CCC(c2cc(C(=O)NN)nc3ccccc23)CC1 (centres undefined)
Result: 82
